- targetOfAssay: Neuronal acetylcholine receptor; alpha3/beta4 (Homo sapiens, UniProt P30926+P32297)
- Sequence (P30926 whole entry): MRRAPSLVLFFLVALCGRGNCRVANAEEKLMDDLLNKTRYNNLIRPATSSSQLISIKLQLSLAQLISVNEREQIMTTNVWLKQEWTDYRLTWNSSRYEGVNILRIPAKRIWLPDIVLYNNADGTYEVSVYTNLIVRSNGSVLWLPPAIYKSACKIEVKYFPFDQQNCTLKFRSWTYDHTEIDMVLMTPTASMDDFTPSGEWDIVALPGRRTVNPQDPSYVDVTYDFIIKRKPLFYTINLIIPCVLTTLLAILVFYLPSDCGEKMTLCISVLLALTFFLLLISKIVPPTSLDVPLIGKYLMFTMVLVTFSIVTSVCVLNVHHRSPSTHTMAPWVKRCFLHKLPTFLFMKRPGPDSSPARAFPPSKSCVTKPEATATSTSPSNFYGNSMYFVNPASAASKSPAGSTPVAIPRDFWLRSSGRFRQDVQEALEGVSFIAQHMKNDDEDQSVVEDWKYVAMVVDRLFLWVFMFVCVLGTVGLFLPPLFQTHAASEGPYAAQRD
- Sequence (P32297 whole entry): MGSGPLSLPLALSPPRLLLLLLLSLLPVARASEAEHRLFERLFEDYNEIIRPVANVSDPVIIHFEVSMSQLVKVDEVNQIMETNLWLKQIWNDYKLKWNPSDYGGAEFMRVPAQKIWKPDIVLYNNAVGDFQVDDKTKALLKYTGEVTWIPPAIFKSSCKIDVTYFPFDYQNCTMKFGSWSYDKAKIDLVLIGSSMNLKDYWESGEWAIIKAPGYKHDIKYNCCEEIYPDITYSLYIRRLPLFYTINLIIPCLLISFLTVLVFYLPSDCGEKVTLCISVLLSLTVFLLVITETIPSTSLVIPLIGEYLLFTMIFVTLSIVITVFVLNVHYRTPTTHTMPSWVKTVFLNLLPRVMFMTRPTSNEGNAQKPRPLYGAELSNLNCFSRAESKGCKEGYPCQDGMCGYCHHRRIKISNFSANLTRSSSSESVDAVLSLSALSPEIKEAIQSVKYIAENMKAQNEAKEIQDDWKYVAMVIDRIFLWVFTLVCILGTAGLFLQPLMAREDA
- protocolDescription: Inhibitory concentration against Nicotinic acetylcholine receptor alpha3-beta4
- Type: protein-complex assay
readoutLabel: IC50

Query: Please report the measured IC50 for C[C@H](NC(=O)[C@H](Cc1ccccc1)NC(=O)[C@H](CS)NC(=O)[C@@H]1CCCN1C(=O)[C@@H]1CCCN1C(=O)[C@H](Cc1ccc(O)cc1)NC(=O)[C@H](CO)NC(=O)[C@H](CS)NC(=O)[C@H](CS)NC(=O)CN)C(=O)N[C@H](C(=O)N[C@@H](CC(N)=O)C(=O)N[C@@H](CO)C(=O)NCC(=O)N[C@@H](Cc1ccc(O)cc1)C(=O)N[C@@H](CS)C(N)=O)[C@@H](C)O
Response: > 0.75 µM

Query: Name the recorded IC50 of the compound listed here: C[C@H](NC(=O)[C@H](Cc1ccccc1)NC(=O)[C@H](CS)NC(=O)[C@@H]1CCCN1C(=O)[C@@H]1CCCN1C(=O)[C@H](Cc1ccc(O)cc1)NC(=O)[C@H](CO)NC(=O)[C@H](CS)NC(=O)[C@H](CS)NC(=O)CN)C(=O)N[C@H](C(=O)N[C@@H](CC(N)=O)C(=O)N[C@@H](CO)C(=O)N[C@@H](CC(=O)O)C(=O)N[C@@H](Cc1ccc(O)cc1)C(=O)N[C@@H](CS)C(N)=O)[C@@H](C)O
Response: > 0.75 µM

Others:
Query: Give the reported IC50 for this compound. CCN1C[C@]2(COC(=O)c3ccccc3N3C(=O)C[C@H](C)C3=O)CC[C@H](OC)[C@@]34[C@@H]5C[C@H]6[C@H](OC)[C@@H]5[C@](O)(C[C@@H]6OC)[C@](O)([C@@H](OC)[C@H]23)[C@@H]14
Response: > 1 µM
